- system.under.test: RBM12B(1-3) (Homo sapiens)
- Sequence: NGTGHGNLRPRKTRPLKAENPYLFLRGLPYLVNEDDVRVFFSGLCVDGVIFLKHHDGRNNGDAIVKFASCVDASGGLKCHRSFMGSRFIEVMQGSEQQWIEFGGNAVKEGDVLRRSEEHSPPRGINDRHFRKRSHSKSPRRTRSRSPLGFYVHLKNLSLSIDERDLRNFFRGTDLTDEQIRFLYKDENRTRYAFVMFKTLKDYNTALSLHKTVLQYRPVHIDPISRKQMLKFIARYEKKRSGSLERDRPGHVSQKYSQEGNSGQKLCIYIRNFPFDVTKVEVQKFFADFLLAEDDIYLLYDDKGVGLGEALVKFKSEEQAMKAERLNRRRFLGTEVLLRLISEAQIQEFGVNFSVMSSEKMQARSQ
- protocol: protein domain microarray probed with biotinylated miRNA; Domain array: 20 mM Tris-HCl pH 7.4, 200 mM KCl, 0.2 mM EDTA, 0.05% NP40, 2 ug/ul heparin, overnight 4 C. ORF array: PBS pH 7.0 with RNase inhibitor, 100 ng RNA; high values mean tight binding
- test.parameters: ssRNA
assay.readout: binding signal (fluorescence intensity)

1) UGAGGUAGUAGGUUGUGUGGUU; 329
2) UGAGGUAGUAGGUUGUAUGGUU; 324
3) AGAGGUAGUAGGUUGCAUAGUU; 274
4) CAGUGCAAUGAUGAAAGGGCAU; 194
5) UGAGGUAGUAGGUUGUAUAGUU; 44.5
